Provide the reported pEC50 of each item.
# System Under Test: hTRPV1 (Homo sapiens, UniProt Q8NER1)
# Sequence (Q8NER1 whole entry): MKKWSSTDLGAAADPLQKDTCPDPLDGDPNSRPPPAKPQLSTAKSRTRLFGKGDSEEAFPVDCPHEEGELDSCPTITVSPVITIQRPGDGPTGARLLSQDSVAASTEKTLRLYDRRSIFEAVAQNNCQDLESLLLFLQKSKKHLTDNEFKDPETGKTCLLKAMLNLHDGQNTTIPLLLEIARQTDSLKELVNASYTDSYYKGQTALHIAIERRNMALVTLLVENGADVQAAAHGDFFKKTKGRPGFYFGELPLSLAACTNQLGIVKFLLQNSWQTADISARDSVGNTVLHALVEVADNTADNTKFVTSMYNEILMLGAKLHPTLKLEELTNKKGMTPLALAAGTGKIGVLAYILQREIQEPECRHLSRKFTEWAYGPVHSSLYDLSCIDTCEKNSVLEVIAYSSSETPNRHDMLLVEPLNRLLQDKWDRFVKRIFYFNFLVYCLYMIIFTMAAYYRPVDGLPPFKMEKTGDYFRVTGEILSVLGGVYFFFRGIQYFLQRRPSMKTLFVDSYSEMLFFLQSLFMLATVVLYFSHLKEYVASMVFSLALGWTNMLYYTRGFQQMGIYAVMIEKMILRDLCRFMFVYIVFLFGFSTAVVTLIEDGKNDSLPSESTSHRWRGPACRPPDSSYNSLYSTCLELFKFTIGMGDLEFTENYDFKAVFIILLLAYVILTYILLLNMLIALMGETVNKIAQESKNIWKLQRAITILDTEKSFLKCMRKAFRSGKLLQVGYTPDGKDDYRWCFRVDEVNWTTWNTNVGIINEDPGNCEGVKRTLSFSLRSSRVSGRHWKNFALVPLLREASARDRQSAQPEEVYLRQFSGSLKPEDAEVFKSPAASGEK
# Assay Protocol: TRPV1 calcium influx assay (Fluo-4) in HEK-293 cells overexpressing human recombinant TRPV1
# Condition Notes: activation; NA = not active (efficacy lower than 10%); read-out: Potency EC50
Give bare numbers, as −log10 of the molar value.

Compound Structure	Recorded Value
CC1(C)CCC[C@]2(C)[C@@H](CC(=O)NCc3ccc(F)cc3)[C@](C)(O)CC[C@@H]12	5.00

As a next step, examine the molecule that follows.
Prompt: # input molecule: `CC1(C)CCC[C@]2(C)[C@@H](CC(=O)Nc3ccccc3-n3cccc3)[C@](C)(O)CC[C@@H]12` ; wanted: its pEC50
Response: 5.33

###

# System Under Test: rTRPV4 (Rattus norvegicus, UniProt Q9ERZ8)
# Sequence (Q9ERZ8 whole entry): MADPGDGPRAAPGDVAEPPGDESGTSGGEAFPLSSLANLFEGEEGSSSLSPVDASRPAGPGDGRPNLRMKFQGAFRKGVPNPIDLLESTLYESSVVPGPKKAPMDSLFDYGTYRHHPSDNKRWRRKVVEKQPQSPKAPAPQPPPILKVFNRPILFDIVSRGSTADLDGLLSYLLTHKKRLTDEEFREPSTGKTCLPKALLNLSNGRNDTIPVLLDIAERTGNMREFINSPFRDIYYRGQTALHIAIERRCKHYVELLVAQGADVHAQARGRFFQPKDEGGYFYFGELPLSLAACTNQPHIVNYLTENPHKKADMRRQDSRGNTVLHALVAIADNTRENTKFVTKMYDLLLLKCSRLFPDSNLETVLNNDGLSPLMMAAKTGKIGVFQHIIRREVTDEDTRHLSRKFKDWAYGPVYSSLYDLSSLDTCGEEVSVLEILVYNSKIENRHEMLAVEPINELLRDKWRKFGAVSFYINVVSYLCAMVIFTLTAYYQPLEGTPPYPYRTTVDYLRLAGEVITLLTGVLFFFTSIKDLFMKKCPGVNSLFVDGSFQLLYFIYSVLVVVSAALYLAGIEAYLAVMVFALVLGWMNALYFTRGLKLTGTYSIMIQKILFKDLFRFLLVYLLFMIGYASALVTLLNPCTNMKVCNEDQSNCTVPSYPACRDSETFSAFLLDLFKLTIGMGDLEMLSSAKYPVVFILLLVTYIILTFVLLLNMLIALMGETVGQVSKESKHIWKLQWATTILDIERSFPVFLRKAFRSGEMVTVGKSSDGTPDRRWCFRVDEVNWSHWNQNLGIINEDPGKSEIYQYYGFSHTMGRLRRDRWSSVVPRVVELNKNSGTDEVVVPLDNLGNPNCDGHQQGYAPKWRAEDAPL
# Assay Protocol: TRPV4 calcium influx assay (Fluo-4) in HEK-293 cells overexpressing rat recombinant TRPV4
# Condition Notes: against the effect of GSK1016790A (10 nM) after a 5-min pre-incubation; read-out: IC50 inh. TRPV4
Kindly supply the reported pIC50 values for the records listed here.
One number for each entry, as −log10 of the molar value.

# count of solved cases: 3
Compound Structure	Recorded Value
CC1(C)CCC[C@]2(C)[C@@H](CC(=O)NCc3ccc(F)cc3)[C@](C)(O)CC[C@@H]12	4.77
CC1(C)CCC[C@]2(C)[C@@H](CC(=O)OCc3ccccc3)[C@](C)(O)CC[C@@H]12	5.27
CC1(C)CCC[C@]2(C)[C@@H](CC(=O)NCc3ccccc3)[C@](C)(O)CC[C@@H]12	4.49

Can you give me pIC50 for all of these, one by one?
1. COc1cccc(CNC(=O)C[C@@H]2[C@@]3(C)CCCC(C)(C)[C@@H]3CC[C@@]2(C)O)c1
2. CC1(C)CCC[C@]2(C)[C@@H](CC(=O)NCCc3cccc(F)c3)[C@](C)(O)CC[C@@H]12
3. CC1(C)CCC[C@]2(C)[C@@H](CC(=O)NCc3ccc(Cl)cc3)[C@](C)(O)CC[C@@H]12

Response:
1: 4.74; 2: 4.92; 3: 5.11

Please supply pIC50 for each of the following items, keeping them in order.
1. CC1(C)CCC[C@]2(C)[C@@H](CC(=O)NCCc3ccc(F)cc3)[C@](C)(O)CC[C@@H]12
2. CC1(C)CCC[C@]2(C)[C@@H](CC(=O)NCc3ccc(Cl)c(Cl)c3)[C@](C)(O)CC[C@@H]12

Response:
[4.94, 5.28]

###

# System Under Test: rTRPV4 (Rattus norvegicus, UniProt Q9ERZ8)
# Construct: expressed in transfected cells; host or cells: HEK-293
# Assay Protocol: TRPV4 calcium influx assay (Fluo-4) in HEK-293 cells overexpressing rat recombinant TRPV4
# Type: cell-based

Compound	activity on rTRPV4 in words
COC(=O)CC1C(C)(O)CCC2C(C)(C)CCCC21C (stereo not drawn) [Compound 20]	inactive
CC1(C)CCC[C@]2(C)[C@@H](CCOCc3cccc(Cl)c3)[C@](C)(O)CC[C@@H]12 [Compound 25]	inactive

###

# System Under Test: hTRPV1 (Homo sapiens)
# Construct: expressed in transfected cells; host or cells: HEK-293
# Assay Protocol: TRPV1 calcium influx assay (Fluo-4) in HEK-293 cells overexpressing human recombinant TRPV1
# Assay type: cell-based
# Condition Notes: as percent of the effect of ionomycin (4 µM); HEK-293 cells overexpressing hTRPV1; means ± SEM, N >= 3
Exercise: for every item that follows, state its recorded Efficacy %.
Give bare numbers, in %.

Compound	System Under Test	Value Unit	Recorded Value
CC1(C)CCC[C@]2(C)[C@@H](CC(=O)NCc3ccccc3)[C@](C)(O)CC[C@@H]12	hTRPV1 (Homo sapiens)	%	36.8
CC1(C)CCC[C@]2(C)[C@@H](CC(=O)NCc3ccc(Cl)c(Cl)c3)[C@](C)(O)CC[C@@H]12	hTRPV1 (Homo sapiens)	%	16.9
CC1(C)CCC[C@]2(C)[C@@H](CC(=O)OCc3ccc(Cl)c(Cl)c3)[C@](C)(O)CC[C@@H]12	hTRPV1 (Homo sapiens)	%	17.5
CC1(C)CCC[C@]2(C)[C@@H](CC(=O)NCCc3cccc(F)c3)[C@](C)(O)CC[C@@H]12	hTRPV1 (Homo sapiens)	%	20.8
CC1(C)CCC[C@]2(C)[C@@H](CC(=O)NCc3ccc(F)cc3)[C@](C)(O)CC[C@@H]12	hTRPV1 (Homo sapiens)	%	24.5
CC1(C)CCC[C@]2(C)[C@@H](CC(=O)Nc3ccccc3-n3cccc3)[C@](C)(O)CC[C@@H]12	hTRPV1 (Homo sapiens)	%	32.0
CC1(C)CCC[C@]2(C)[C@H]3CC(=O)O[C@]3(C)CC[C@@H]12 [Scd, (+)-Sclareolide, reference compound]	hTRPV1 (Homo sapiens)	%	12.6
COc1ccc(CNC(=O)C[C@@H]2[C@@]3(C)CCCC(C)(C)[C@@H]3CC[C@@]2(C)O)cc1	hTRPV1 (Homo sapiens)	%	19.7
CC1(C)CCC[C@]2(C)[C@@H](CC(=O)NCc3ccco3)[C@](C)(O)CC[C@@H]12	hTRPV1 (Homo sapiens)	%	25.2

Prompt: Which Efficacy % reading was recorded for the compound `CC1(C)CCC[C@]2(C)[C@@H](CC(=O)Nc3ccccc3)[C@](C)(O)CC[C@@H]12` ?
Response: 33.6

###

# System Under Test: hTRPV1 (Homo sapiens, UniProt Q8NER1)
# Construct: expressed in transfected cells; host or cells: HEK-293
# Assay Protocol: TRPV1 calcium influx assay (Fluo-4) in HEK-293 cells overexpressing human recombinant TRPV1
# Assay type: cell-based
# Condition Notes: read-out: IC50 inh TRPV1
Give IC50 for every item shown.

Compound	Recorded Value
CC1(C)CCC[C@]2(C)[C@@H](CC(=O)Nc3ccccc3-n3cccc3)[C@](C)(O)CC[C@@H]12 [Compound 3]	> 100 µM
COc1cccc(CNC(=O)C[C@@H]2[C@@]3(C)CCCC(C)(C)[C@@H]3CC[C@@]2(C)O)c1 [Compound 9]	> 100 µM
CC1(C)CCC[C@]2(C)[C@H]3CC(=O)O[C@]3(C)CC[C@@H]12 [Scd, (+)-Sclareolide, reference compound]	> 100 µM
CC1(C)CCC[C@]2(C)[C@@H](CC(=O)NCCc3ccc(F)cc3)[C@](C)(O)CC[C@@H]12 [Compound 12]	> 100 µM
CC1(C)CCC[C@]2(C)[C@@H](CC(=O)NCCc3cccc(F)c3)[C@](C)(O)CC[C@@H]12 [Compound 13]	> 50 µM

Prompt: What measured IC50 goes with CC1(C)CCC[C@]2(C)[C@@H](CC(=O)NCc3ccco3)[C@](C)(O)CC[C@@H]12 [Compound 14] ?
Response: > 100 µM
